assay-details: Behavioural toxicity in po dosed albino Sprague-Dawley rat measured at 0.25 - 4 hrs
Type: organism-based
measurement-parameters: in vivo
Quick reference: TD50 of the listed items.

Observe how each entry below is paired with its result.
COC[C@@H](NC(C)=O)C(=O)NCc1ccc(Oc2cccc(C)c2)cc1 > 30 mg/kg
COC[C@@H](NC(C)=O)C(=O)NCc1ccc(Oc2cccc(F)c2)cc1 > 10 mg/kg
COC[C@@H](NC(C)=O)C(=O)NCc1ccc(Oc2cccc(OC)c2)cc1 > 30 mg/kg

Lab note: next molecule to report on.
According to the records, this molecule COC[C@@H](NC(C)=O)C(=O)NCc1ccc(Oc2cccc(C(F)(F)F)c2)cc1 displays TD50 of > 30 mg/kg
